Molecular target: Bcl-2 protein (Recombinant Human Bcl-2 Protein) (Homo sapiens)
Construct: purchased Novus Biologicals NBP2-34889
Assay: AS-MS evaluation of binding of the Example 4 mixture library (1200 compounds/well) to Bcl-2, ASMS ratio (%)
Details: AS-MS, Example 4 mixture library, Bcl-2, replicate n = 1
Property Measured: ASMS ratio (%) n = 1

[[record]]
molecule = "CCOc1cccc(C#Cc2ccccc2C(=O)N2CCN(c3ccc(C(=O)NS(=O)(=O)c4ccc(NCCSc5ccccc5)c(C(F)(F)F)c4)nn3)CC2)c1"
property_measured = "ASMS ratio (%) n = 1"
experimental_value = 0.0


P. CCOc1cncc(-c2ccc(C(=O)N3CCN(c4ccc(C(=O)NS(=O)(=O)c5ccc(NCCSc6ccccc6)c(C(F)(F)F)c5)cc4)CC3)cc2F)c1
Q. CCOc1cncc(-c2ccc(CN3CCN(c4ccc(C(=O)NS(=O)(=O)c5ccc(NCCSc6ccccc6)c(C(F)(F)F)c5)nn4)CC3)c(OC)c2)c1
Between P and Q , which one shows the larger ASMS ratio (%) n = 1 value? Reply with the label of the item you choose.
Q
(Q: 16.7%, P: 4.1%)

###

Molecular target: Bcl-2 protein (Recombinant Human Bcl-2 Protein) (Homo sapiens, UniProt P10415)
Construct: purchased Novus Biologicals NBP2-34889
Sequence (P10415 whole entry): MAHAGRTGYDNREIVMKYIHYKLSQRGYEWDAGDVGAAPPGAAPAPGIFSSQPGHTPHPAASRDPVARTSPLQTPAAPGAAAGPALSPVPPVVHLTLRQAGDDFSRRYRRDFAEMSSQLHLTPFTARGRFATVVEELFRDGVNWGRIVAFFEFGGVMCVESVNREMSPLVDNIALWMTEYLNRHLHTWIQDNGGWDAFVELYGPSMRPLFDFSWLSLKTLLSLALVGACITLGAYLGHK
Assay: AS-MS evaluation of binding of the Example 4 mixture library (1200 compounds/well) to Bcl-2, ASMS ratio (%)
Conditions: AS-MS, Example 4 mixture library, Bcl-2, replicate n = 2
Property Measured: ASMS ratio (%) n = 2

[[record]]
compound = "CCOc1cccc(C#Cc2ccccc2C(=O)N2CCN(c3ccc(C(=O)NS(=O)(=O)CCC(F)(F)F)nn3)CC2)c1"
experimental_value = 0.0


1. CCOc1cncc(-c2ccc(C(C)N3CCN(c4ccc(C(=O)NS(=O)(=O)C(C)(C)C)cc4)CC3)c(F)c2)c1 (stereo not drawn)
2. CCOc1cncc(-c2cnn(-c3cc(C(=O)N4CCN(c5ccc(C(=O)NS(=O)(=O)CCC(F)(F)F)cc5)CC4)cc(C(F)(F)F)c3)c2)c1
Between 1 and 2 , which one shows the larger ASMS ratio (%) n = 2 value? Reply with the label of the item you choose.
2

###

Target: Bcl-2 protein (Recombinant Human Bcl-2 Protein) (Homo sapiens, UniProt P10415)
Construct: purchased Novus Biologicals NBP2-34889
Test: AS-MS evaluation of binding of the mixture libraries of Examples 8 and 9 to Bcl-2, ASMS ratio (%), Example 11
Details: ASMS ratio, replicate N4 (additional day); mixtures obtained from Example 9, 10 uM Bcl-2 protein
Property Measured: AS-MS(%) N4

[[record]]
compound = "CCOc1cc(N2CCN(c3ccc(C(=O)NS(=O)(=O)c4ccc(N[C@H](CCN5CCOCC5)CSc5ccccc5)c([N+](=O)[O-])c4)cc3)CC2)cc2c1CCCC2C(=O)Nc1ccccc1 (stereo partly drawn) [2-2-d1E04-2-0466]"
experimental_value = 36.8

[[record]]
compound = "CCOc1cc(C(C)C(=O)Nc2nc3ccccc3s2)cc(N2CCN(c3ccc(C(=O)NS(=O)(=O)c4ccc(N[C@H](CCN5CCOCC5)CSc5ccccc5)c([N+](=O)[O-])c4)cc3)CC2)c1 (stereo partly drawn) [2-2-d1E04-2-0495]"
experimental_value = 50.3

[[record]]
compound = "CC(C(=O)Nc1ccc(F)cc1)c1cc(O)cc(N2CCN(c3ccc(C(=O)NS(=O)(=O)c4ccc(NCCSc5ccccc5)c([N+](=O)[O-])c4)cc3)CC2)c1 (stereo not drawn) [2-2-d1E03-1-0454]"
experimental_value = 38.2


###

Target: Bcl-2 protein (Recombinant Human Bcl-2 Protein) (Homo sapiens, UniProt P10415)
Construct: purchased Novus Biologicals NBP2-34889
Test: AS-MS evaluation of binding of the Example 4 mixture library (1200 compounds/well) to Bcl-2, ASMS ratio (%)
Settings: replicate n = 1; mixture library; value belongs to the MS peak assigned to the compound
Property Measured: ASMS ratio (%) n = 1

Examples with their reported ASMS ratio (%) n = 1 follow.
[[record]]
smi = "CCOc1cncc(-c2ccc(CN3CCN(c4ccc(C(=O)NS(=O)(=O)C(C)(C)C)cc4)CC3)cc2C)c1"
experimental_value = 3.9

[[record]]
smi = "CCOc1cccc(-c2cc(CN3CCN(c4ccc(C(=O)NS(C)(=O)=O)nn4)CC3)cc(OC(C)C)c2)c1"
experimental_value = 0.0

[[record]]
smi = "CCOc1cncc(-c2cnn(-c3cc(C(=O)N4CCN(c5ccc(C(=O)NS(C)(=O)=O)cc5)CC4)cc(C(F)(F)F)c3)c2)c1"
experimental_value = 0.0


P. CCOc1cncc(-c2ccc(CN3CCN(c4ccc(C(=O)NS(C)(=O)=O)cc4)CC3)cc2C)c1
Q. CCOc1cncc(-c2ccccc2CCC(=O)N2CCN(c3ccc(C(=O)NS(=O)(=O)C(C)(C)C)cc3)CC2)c1
Between P and Q , which one shows the larger ASMS ratio (%) n = 1 value? Reply with the label of the item you choose.
Q
(Q: 1.6%, P: 0.0%)

###

Target: Bcl-2 protein (Recombinant Human Bcl-2 Protein) (Homo sapiens)
Construct: purchased Novus Biologicals NBP2-34889
Assay: AS-MS evaluation of binding of the Example 4 mixture library (1200 compounds/well) to Bcl-2, ASMS ratio (%)
Details: replicate n = 2; mixture library; value belongs to the MS peak assigned to the compound
Property Measured: ASMS ratio (%) n = 2

I. CCOc1cncc(C#Cc2ccccc2CN2CCN(c3ccc(C(=O)NS(=O)(=O)C(C)(C)C)cc3)CC2)c1 [Compound B2L070-01]
II. CCOc1cccc(-c2ccccc2CN2CCN(c3ccc(C(=O)NS(=O)(=O)C(C)(C)C)nn3)CC2)c1 [Compound B2L071-01]
III. CCOc1cncc(-c2ccccc2CCC(=O)N2CCN(c3ccc(C(=O)NS(=O)(=O)C(C)(C)C)cc3)CC2)c1 [Compound B2L034-01]
IV. CCOc1cncc(-c2ccccc2CCC(=O)N2CCN(c3ccc(C(=O)NS(=O)(=O)C(C)(C)C)nn3)CC2)c1 [Compound B2L012-01]
In this exercise, place the 4 compounds in ascending sequence of their recorded ASMS ratio (%) n = 2. // list labels; follow requested order
I, II, III, IV

###

Target: Bcl-2 protein (Recombinant Human Bcl-2 Protein) (Homo sapiens, UniProt P10415)
Construct: purchased Novus Biologicals NBP2-34889
Experiment: AS-MS evaluation of binding of the Example 4 mixture library (1200 compounds/well) to Bcl-2, ASMS ratio (%)
Conditions: AS-MS, Example 4 mixture library, Bcl-2, replicate n = 2
Property Measured: ASMS ratio (%) n = 2

[[record]]
molecule = "CCOc1cccc(-c2ccc(CN3CCN(c4ccc(C(=O)NS(=O)(=O)c5ccc(NCCSc6ccccc6)c(C(F)(F)F)c5)cc4)CC3)c(CC)c2)c1 [Compound B2R049-01]"
experimental_value = "−5.5"

[[record]]
molecule = "CCOc1cccc(-c2cc(CN3CCN(c4ccc(C(=O)NS(=O)(=O)c5ccc(NCCSc6ccccc6)c(C(F)(F)F)c5)nn4)CC3)cc(C(F)(F)F)c2)c1 [Compound B2R087-01]"
experimental_value = 7.1

[[record]]
molecule = "CCOc1cncc(-c2cc(C(=O)N3CCN(c4ccc(C(=O)NS(=O)(=O)c5ccc(NCCSc6ccccc6)c(C(F)(F)F)c5)nn4)CC3)cc(C(C)(C)C)c2)c1 [Compound B2R016-01]"
experimental_value = 2.7


I. CCOc1cccc(-c2cc(CN3CCN(c4ccc(C(=O)NS(=O)(=O)c5ccc(NCCSc6ccccc6)c(C(F)(F)F)c5)nn4)CC3)cc(OC(C)C)c2)c1 [Compound B2R083-01]
II. CCOc1cccc(-c2ccc(CN3CCN(c4ccc(C(=O)NS(=O)(=O)c5ccc(NCCSc6ccccc6)c(C(F)(F)F)c5)nn4)CC3)cc2F)c1 [Compound B2R077-01]
Between I and II , which one shows the larger ASMS ratio (%) n = 2 value? Reply with the label of the item you choose.
II

###

Target: Bcl-2 protein (Recombinant Human Bcl-2 Protein) (Homo sapiens)
Construct: purchased Novus Biologicals NBP2-34889
Experiment: AS-MS evaluation of binding of the Example 4 mixture library (1200 compounds/well) to Bcl-2, ASMS ratio (%)
Conditions: replicate n = 2; mixture library; value belongs to the MS peak assigned to the compound
Property Measured: ASMS ratio (%) n = 2

[[record]]
compound = "CCOc1cccc(-c2ccc(CN3CCN(c4ccc(C(=O)NS(C)(=O)=O)cc4)CC3)cc2C)c1 [Compound B2I047-01]"
assayed_system = "Bcl-2 protein (Recombinant Human Bcl-2 Protein) (Homo sapiens)"
experimental_value = 1.4

[[record]]
compound = "CCOc1cncc(-c2ccccc2CN2CCN(c3ccc(C(=O)NS(C)(=O)=O)nn3)CC2)c1 [Compound B2I072-01]"
assayed_system = "Bcl-2 protein (Recombinant Human Bcl-2 Protein) (Homo sapiens)"
experimental_value = 1.3

[[record]]
compound = "CCOc1cncc(-c2cc(CN3CCN(c4ccc(C(=O)NS(C)(=O)=O)nn4)CC3)cc(OC(F)(F)F)c2)c1 [Compound B2I090-01]"
assayed_system = "Bcl-2 protein (Recombinant Human Bcl-2 Protein) (Homo sapiens)"
experimental_value = 0.0

[[record]]
compound = "CCOc1cccc(-c2cc(C(=O)N3CCN(c4ccc(C(=O)NS(=O)(=O)C(C)(C)C)nn4)CC3)cc(C(F)(F)F)c2)c1 [Compound B2L017-01]"
assayed_system = "Bcl-2 protein (Recombinant Human Bcl-2 Protein) (Homo sapiens)"
experimental_value = 0.0

[[record]]
compound = "CCOc1cncc(-c2cc(OC)c(CN3CCN(c4ccc(C(=O)NS(C)(=O)=O)cc4)CC3)c(OC)c2)c1 [Compound B2I060-01]"
assayed_system = "Bcl-2 protein (Recombinant Human Bcl-2 Protein) (Homo sapiens)"
experimental_value = 0.0


A. CCOc1cncc(-c2csc(C(=O)N3CCN(c4ccc(C(=O)NS(=O)(=O)C(C)(C)C)nn4)CC3)c2)c1 [Compound B2L002-01]
B. CCOc1cncc(-c2cc(C(=O)N3CCN(c4ccc(C(=O)NS(=O)(=O)C(C)(C)C)cc4)CC3)cc(C(F)(F)F)c2)c1 [Compound B2L040-01]
Between A and B , which one shows the larger ASMS ratio (%) n = 2 value? Reply with the label of the item you choose.
B

Where do these numbers come from? They come from patent US20250154686A1.
